TARGET_UNDER_TEST: HLA-A*02:03
ASSAY_SUMMARY: IEDB peptide-MHC binding, purified MHC/competitive/radioactivity; bounds were set here for any values at or beyond the usual limits of such assays
APPLIED_CONDITIONS: source organism: Mammarenavirus guanaritoense
MEASURED_QUANTITY: pIC50
Bear in mind: pIC50 is minus log10 of a mol/L concentration; give just that figure.

Consider the reported pIC50 for these sequences:
CONSTRUCT_SEQUENCE: TLVDLCFWS
pIC50: 6.28
//
CONSTRUCT_SEQUENCE: FMNDLQVSR
pIC50: 6.04
//
CONSTRUCT_SEQUENCE: TSVDLNAPV
pIC50: 6.08

Pending sequence:
Query string: For the sequence shown here, `YCNYTRFWYI` , give the reported pIC50.
Result string: 5.36

----------
TARGET_UNDER_TEST: HLA-A*02:03
ASSAY_SUMMARY: IEDB peptide-MHC binding, purified MHC/competitive/radioactivity; bounds were set here for any values at or beyond the usual limits of such assays
APPLIED_CONDITIONS: source organism: Vaccinia virus WR
Bucketed by reported IC50, buckets being bottom range = under 70 nM, center range = from 70 nM up to 700 nM, top range = 700 nM and over

Example entries and their recorded answers appear below.
CONSTRUCT_SEQUENCE: AMHDKKIDI
TARGET_UNDER_TEST: HLA-A*02:03
GROUP: top range

CONSTRUCT_SEQUENCE: ELIDVLKTRL
TARGET_UNDER_TEST: HLA-A*02:03
GROUP: center range

CONSTRUCT_SEQUENCE: FTSYKRFVT
TARGET_UNDER_TEST: HLA-A*02:03
GROUP: top range

CONSTRUCT_SEQUENCE: IVDSMIIGHI
TARGET_UNDER_TEST: HLA-A*02:03
GROUP: center range

CONSTRUCT_SEQUENCE: STIANSNII
TARGET_UNDER_TEST: HLA-A*02:03
GROUP: top range

CONSTRUCT_SEQUENCE: AMIHKTYIDV
TARGET_UNDER_TEST: HLA-A*02:03
GROUP: bottom range

CONSTRUCT_SEQUENCE: GVLIAGIIL
TARGET_UNDER_TEST: HLA-A*02:03
GROUP: top range

CONSTRUCT_SEQUENCE: HLENDKIEDL
TARGET_UNDER_TEST: HLA-A*02:03
GROUP: center range

CONSTRUCT_SEQUENCE: KVTVPTNDHI
TARGET_UNDER_TEST: HLA-A*02:03
GROUP: top range

CONSTRUCT_SEQUENCE: ILPDKIDGL
TARGET_UNDER_TEST: HLA-A*02:03
GROUP: bottom range

Query string: Assign a bin to `SISEINEWL`
Result string: bottom range

Query string: Assign a bin to `ALKNSQAEL`
Result string: bottom range

Query string: Assign a bin to `GIAIFNNRNL`
Result string: top range

Query string: Assign a bin to `VLPFDIKYI`
Result string: bottom range

Query string: Assign a bin to `TLFGRGVIDT`
Result string: center range

Query string: Assign a bin to `PMSRLFMDEI`
Result string: top range

Query string: Assign a bin to `ITLILSNKLL`
Result string: top range

Query string: Assign a bin to `GVSGLYIPGT`
Result string: top range

Query string: Assign a bin to `GTIILNKIV`
Result string: top range

Query string: Assign a bin to `DTIAHINTLI`
Result string: center range

Query string: Assign a bin to `TLVKSGLTEV`
Result string: bottom range

Query string: Assign a bin to `NIGCAVNTPV`
Result string: bottom range

Query string: Assign a bin to `GLKIEEIEKV`
Result string: bottom range

Query string: Assign a bin to `EVLMSPCRM`
Result string: center range

Query string: Assign a bin to `YVSPTEMVDV`
Result string: bottom range

Query string: Assign a bin to `QLYTISSESL`
Result string: center range

Query string: Assign a bin to `TLLIKTLSPA`
Result string: bottom range

Query string: Assign a bin to `IVNCLSLSNL`
Result string: center range

Query string: Assign a bin to `GINNVQSLI`
Result string: center range

Query string: Assign a bin to `ALVSDCASTI`
Result string: bottom range

----------
TARGET_UNDER_TEST: HLA-A*02:06
ASSAY_SUMMARY: IEDB peptide-MHC binding, purified MHC/competitive/radioactivity; bounds were set here for any values at or beyond the usual limits of such assays
APPLIED_CONDITIONS: source organism: Vaccinia virus WR
Form field: pIC50 (one value per entry).
Bear in mind: pIC50 is minus log10 of a mol/L concentration; give just that figure.

Consider the reported pIC50 for these sequences:
CONSTRUCT_SEQUENCE: PISDYSAEV
TARGET_UNDER_TEST: HLA-A*02:06
pIC50: 5.55
//
CONSTRUCT_SEQUENCE: VQTLISLNSM
TARGET_UNDER_TEST: HLA-A*02:06
pIC50: 6.07
//
CONSTRUCT_SEQUENCE: NIYRLFTRCA
TARGET_UNDER_TEST: HLA-A*02:06
pIC50: 7.64
//
CONSTRUCT_SEQUENCE: ALMTLDDLAI
TARGET_UNDER_TEST: HLA-A*02:06
pIC50: 7.62
//
CONSTRUCT_SEQUENCE: VISVIFYFI
TARGET_UNDER_TEST: HLA-A*02:06
pIC50: 6.30

Query string: For the sequence shown here, `TIDNIVTSL` , give the reported pIC50.
Result string: 5.56

Query string: For the sequence shown here, `VMPEKRNVV` , give the reported pIC50.
Result string: 5.48

Query string: For the sequence shown here, `YIEDELRRAA` , give the reported pIC50.
Result string: 6.69

Query string: For the sequence shown here, `KIDKLTFQI` , give the reported pIC50.
Result string: 7.38

Query string: For the sequence shown here, `NLILNFLDWI` , give the reported pIC50.
Result string: 6.35

Query string: For the sequence shown here, `VILPDKIDGL` , give the reported pIC50.
Result string: 6.62

----------
TARGET_UNDER_TEST: HLA-A*68:02
ASSAY_SUMMARY: IEDB peptide-MHC binding, purified MHC/competitive/radioactivity; bounds were set here for any values at or beyond the usual limits of such assays
APPLIED_CONDITIONS: source organism: Influenza A virus
MEASURED_QUANTITY: pIC50
Bear in mind: pIC50 is minus log10 of a mol/L concentration; give just that figure.

Consider the reported pIC50 for these sequences:
CONSTRUCT_SEQUENCE: NVLSIAPI
TARGET_UNDER_TEST: HLA-A*68:02
pIC50: 5.88
//
CONSTRUCT_SEQUENCE: ATAGLTHMMI
TARGET_UNDER_TEST: HLA-A*68:02
pIC50: 6.86
//
CONSTRUCT_SEQUENCE: SCLENFRAYV
TARGET_UNDER_TEST: HLA-A*68:02
pIC50: 6.65

Query string: For the sequence shown here, `HANNSTDTV` , give the reported pIC50.
Result string: 6.77

----------
TARGET_UNDER_TEST: HLA-A*02:02
ASSAY_SUMMARY: IEDB peptide-MHC binding, cellular MHC/competitive/fluorescence; bounds were set here for any values at or beyond the usual limits of such assays
APPLIED_CONDITIONS: source organism: Vaccinia virus WR
Returns: string. Value is Satisfied if measured IC50 is below 10 µM, and Not satisfied if it is greater than or equal to it.

Example entries and their recorded answers appear below.
CONSTRUCT_SEQUENCE: LTSNCTRTT
GROUP: Not satisfied
--
CONSTRUCT_SEQUENCE: YVEHDPRLVA
GROUP: Not satisfied
--
CONSTRUCT_SEQUENCE: VVIVENDNVI
GROUP: Not satisfied

Query string: Is IC50 of `KTEHCDDFM` strictly below 10 µM?
Result string: Satisfied

Query string: Is IC50 of `PTEMVDVSMM` strictly below 10 µM?
Result string: Not satisfied

Query string: Is IC50 of `DAKRNSKSLV` strictly below 10 µM?
Result string: Not satisfied

Query string: Is IC50 of `SMTSDSKSI` strictly below 10 µM?
Result string: Satisfied

Query string: Is IC50 of `FVKKMLPKII` strictly below 10 µM?
Result string: Not satisfied

Query string: Is IC50 of `PLIISTDQDT` strictly below 10 µM?
Result string: Not satisfied

Query string: Is IC50 of `KTPLYYLSGT` strictly below 10 µM?
Result string: Not satisfied

Query string: Is IC50 of `EVGTNFGTI` strictly below 10 µM?
Result string: Satisfied
